Molecular target: T1, Bcl-w, Q92843
T1 chain: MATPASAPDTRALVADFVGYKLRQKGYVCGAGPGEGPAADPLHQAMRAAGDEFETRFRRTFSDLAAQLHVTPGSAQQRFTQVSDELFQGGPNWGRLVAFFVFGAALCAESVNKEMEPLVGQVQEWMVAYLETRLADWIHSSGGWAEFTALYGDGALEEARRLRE
Test: peptide SPOT array, c-Myc-tagged receptor at 1 uM or 100 nM, anti-c-Myc-Cy3
QUANTITY: SPOT signal as a fraction of Bim BH3's signal on the same receptor and array

I = EGMRTILVDWLVEVGEEYKLRAETLY [CCNA1]
II = SGEFARICRDLSHIGDAVVISCAKDG [PCNA]
III = SATHDEAVQVLKKTGKEVVLEVKYMK [SNTA1]
IV = RTNNYQLSDELRKNGVELTSLRQKVA [GRIPAP1]
## Input Arrange items by their SPOT signal as a fraction of Bim BH3's signal on the same receptor and array values in increasing order. I'd appreciate it if you listed the labels in the requested order.
## Output I, II, III, IV

P = LCKEKPTTALLDKVADNLAIQLAAVT [ILF3]
Q = NWFGDWSTEALYQVGKEFTSKMDLEK [DYNC1H1]
## Input Smaller SPOT signal as a fraction of Bim BH3's signal on the same receptor and array value, P vs Q ? Write down the label of the entry you select.
## Output P
(P: 0.02, Q: 0.03)

1 = ASEANLFEEALEKYGKDFTDIQQDFL [MTA1]
2 = SSLSDGLPVHLANIADELTQKKKMFK [AGBL2]
3 = RYPILENPEILRKTADDFLNRIALTD [CCNH]
## Input Ascending by SPOT signal as a fraction of Bim BH3's signal on the same receptor and array, please. I'd appreciate it if you listed the labels in the requested order.
## Output 1, 3, 2
